Values were extracted from PubChem BioAssay (NCI).

- System: OVCAR-8 ovarian
- assayNotes: NCI-60 one-dose screen, 48 h (100 = growth as untreated, 0 = no growth, -100 = all killed)
- conditionContext: 10 µM unless noted
This is part of a sample that, as a whole, favours compounds with a hit. Of some 83,000 tested, about 20% had one in any assay.
// reported growth per item
attributeMeasured: growth (%)

1) CCOC(=O)/C=C/c1c(C)[nH]c(=O)[nH]c1=O; 83.2
2) Nc1ccc([N+](=O)[O-])cc1N=C/C=C/c1ccccc1; 79.9
3) c1ccc(CCc2ccccc2-c2cc(-c3ccccc3)on2)cc1; 103
4) CCOC(=O)c1ccc2c(c1)c1c(C)c3ccncc3c(C)c1n2C; 3.64
5) C#Cc1cccc(Nc2nc3ccc([N+](=O)[O-])cc3nc2Nc2cccc(C#C)c2)c1; -23.3
6) CC(C)CCC[C@@H](C)C1CCC2C3CCC4=C/C(=N/OCCN(C)C)CC[C@]4(C)C3CC[C@@]21C (stereo partly drawn); 104
7) COC(=O)C1=C(C(=O)Nc2cccnc2)C2OC1(C(Cc1ccccc1)Oc1ccccc1)C1OC21 (stereo not drawn); 86.4
8) C[C@@H](CO)[C@@H]1CC[C@]2(C(=O)N3CCN(C)CC3)CC[C@]3(C)[C@H](CC[C@@H]4[C@@]5(C)CC[C@H](O)C(C)(C)[C@@H]5CC[C@]43C)[C@@H]12; 80.3
9) CCCC(O)Cn1ncc(C(=O)OCC)c1NC(=O)NCc1cccc(F)c1 (stereo not drawn); 94.8
10) Oc1c(Cl)cc(Cl)c2ccc(Cn3cc(-c4cccc(C(F)(F)F)c4)nn3)nc12; 80
11) Cc1cc(F)ccc1S(=O)(=O)Nc1cc(-c2c(O)ccc3ccccc23)c(O)c2ccccc12; 37.1
12) COc1cc2c3c(c1O)-c1ccccc1[C@@H]1OC(=O)N(CC2)[C@H]31; 97.8
13) COc1ccc2cc(Cn3cc[n+](Cc4ccc5ccccc5c4)c3)ccc2c1; 8.73

###

- Test system: CAKI-1 renal
- assayNotes: NCI-60 one-dose screen, 48 h
- conditionContext: 10 µM unless noted
Compounds without any hit were thinned out: in the full panel of roughly 83,000, 20% have a hit. Active and inactive are the calls of the source. The calls were made as follows: active = growth percent below 10; inactive = the rest.
Possible outcomes: yes (active), no (inactive)

1) Cn1cc(-c2nonc2-c2c[nH]c3ccccc23)c2ccccc21; no
2) O=C(c1ccc(Cl)cc1Cl)N1c2ccccc2Sc2ccccc21; no
3) C=CC(=O)N1CCN(c2ccc3cccc(NC(=O)c4cnc(C)cn4)c3n2)CC1; yes
4) COC(=O)C1=C(C)NC(C)=C(C(=O)OCC(C)C)C1c1ccccc1[N+](=O)[O-] (stereo not given); no
5) O=c1oc2c(cnc3ccccc32)cc1-c1cccs1; no

###

- System: SF-539 CNS
- assayNotes: NCI-60 one-dose screen, 48 h
- conditionContext: 10 µM unless noted
The panel holds about 83,000 compounds, 20% with a hit somewhere; the sample as a whole holds those more often. Calls of active or inactive are those of the source. How the source made its calls: active means growth percent below 10; inactive means the rest.
Possible outcomes: label 1 for active, label 0 for inactive

1. COc1ccc2c(c1)c(-c1nonc1-c1c[nH]c3ccc(Br)cc13)cn2C; label 0
2. CC(C)CN1CC(C(=O)Nc2ccc3c(c2)-c2ccccc2C3)CC1=O (stereo not drawn); label 0
3. COc1ccc(C2=CN3CC=CCC3CC2=O)cc1 (stereo not drawn); label 0
4. C#Cc1cccc(Oc2ccc(NC(=O)CCl)cc2)c1; label 0
5. C(/C=C/c1ccccc1)=Nc1ccc(CCc2ccc(N=C/C=C/c3ccccc3)cc2)cc1; label 0
6. CN1CCN(Cc2cc(NC(=O)c3cccc(C#Cc4cccc5[nH]nc(N)c45)c3)cc(C(F)(F)F)c2)CC1; label 1
7. Clc1nn2c(Cn3cnc4c(NCc5ccccc5)ncnc43)nnc2c2ccccc12; label 0
8. O=C(Nc1cccc(NC(=O)C2CCCCC2)c1)c1ccccn1; label 0
9. O=C(Nc1ccccc1O)c1ccccc1Nc1ccnc(C(F)(F)F)c1; label 0
10. CCN(CC)c1ccc(N2C(=O)/C(=C/c3cccs3)SC2=S)cc1; label 0
11. Cn1cc(-c2nn3cc(-c4ccccc4)nc3s2)c2ccccc21; label 0
12. COC(=O)/C=C1/SC(=Nc2cccc(Cl)c2)N(CCc2c[nH]c3ccc(O)cc23)C1=O; label 1
13. CCOC(=O)c1c2c(n3c1NCC3)-c1ccccc1C2=O; label 0
14. CCC(CC)(N(CC(=O)O)CC(=O)O)C(CC)(CC)N(CC(=O)O)CC(=O)O; label 0
15. CCCCCCCCn1ccc2cc(NC(=O)Cn3cc(CN4CCC(C)CC4)nn3)ccc21; label 0
16. COc1ccc(C2C3=C(COC3=O)N(CCO)c3cc4c(cc32)OCCO4)cc1OC (stereo not drawn); label 1
17. CC(C)=CC(=O)N[C@@H]1CC2CCC3C(CC[C@@]4(C)C3CC[C@@H]4C(C)N(C)C)[C@@]2(C)C[C@@H]1O (stereo partly drawn); label 1
18. CC1COCC(C)N1C1=C(Cl)C(=O)c2ccccc2C1=O (stereo not drawn); label 0
19. O[C@@H](c1cc(C(F)(F)F)nc2c(C(F)(F)F)cccc12)[C@H]1CCCCN1; label 0
20. CCCCCn1sc(=O)n(Cc2ccc(CNC(=O)OCc3ccc4c(Cl)cc(Cl)c(O)c4n3)cc2)c1=O; label 0
21. COc1ccccc1NC(=O)c1ccc(/C=C/C(=O)c2nccn2C)cc1; label 1
22. CN(C)c1ccc(/C=C/C(=O)c2ccc(Nc3nc(Nc4ccc(F)cc4)nc(Nc4ccc(Cl)cc4)n3)cc2)cc1; label 0
23. N#Cc1c(NC(=O)c2cccs2)[n+]([O-])c2ccc(Cl)cc2[n+]1[O-]; label 0
24. CCN(CC)c1ccc(/C=C\c2cc(C)c3cc(C)ccc3n2)cc1; label 0
25. COc1ccc(C2=Nc3c(N)ncnc3NC(c3cccc(Nc4ccnc5cc(C(F)(F)F)ccc45)c3)C2)cc1 (stereo not drawn); label 0
26. COC1=CC(c2ccc[nH]2)=N/C1=C\c1[nH]c(C)c(CC(=O)OCc2ccccc2)c1C; label 1
27. CN(Cc1cnc2nc(N)nc(N)c2n1)c1c(Cl)cc(C(=O)NC(CCC(=O)O)C(=O)O)cc1Cl (stereo not drawn); label 0
28. CCOC(=O)C/C(=N\Nc1cc(=O)[nH]c2ccc(Cl)cc12)C(=O)OCC; label 0
29. COc1ccc(-c2ccc(=O)oc2C#Cc2cc(OC)c(OC)c(OC)c2)cc1O; label 1
30. COc1ccc(/C=C/C(=O)c2ccc(NC(=O)CSc3nnc(-c4cc(-c5ccccc5)nc5ccccc45)n3-c3ccccc3)cc2)cc1; label 0
31. C/C(=C(\c1ccc(OCCN2CCCCCC2)cc1)c1ccc(OC(=O)Cc2ccccc2)cc1)c1ccc(Cl)cc1; label 0
32. CCn1cc(C(=O)N/N=C/c2ccc(Br)cc2)c(=O)c2cc(F)c(N3CCNC(C)C3)c(F)c21 (stereo not drawn); label 0
33. Cc1ccc(O)c(NC(=O)c2ccc(CNc3ccnc(C(F)(F)F)c3)cc2)c1; label 0
